Attribution: PubChem BioAssay AID2060503

Test system: 817829-284-R-J1-PDC complex spheroids, viability
Experimental Details: Anticancer human tumor 817829-284-R-J1-PDC patient-derived colon adenocarcinoma cell line growth inhibition [GQUAD]
Measurement Conditions: curve of first compound; second compound 1 µM
Parameter Measured: IC50 (nM)
Write the value in nM as a bare number.

Identify IC50 associated with the compound COc1cc(C2c3cc4c(cc3C(OC3OC5COC(C)OC5C(O)C3O)C3COC(=O)C23)OCO4)cc(OC)c1O (stereo not given) + Cc1[nH]c2ccc(F)cc2c1-c1nc2c3cccnc3c3ncccc3c2[nH]1 214

Input CC1COCCN1c1cc(C2(S(C)(=N)=O)CC2)nc(-c2ccnc3[nH]ccc23)n1 (stereo not given) + Cc1[nH]c2ccc(F)cc2c1-c1nc2c3cccnc3c3ncccc3c2[nH]1 , output reported IC50. 709

---

I'd appreciate it if you could supply viability, T/C values for the items below.
Test system: 817829-284-R-J1-PDC complex spheroids, viability
Experimental Details: Anticancer human tumor 817829-284-R-J1-PDC cell line growth inhibition [GQUAD];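 also: spheroids exposed to agents for 7 days before readout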;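 as to viability, T/C: percent viability relative to DMSO vehicle control taken as 100%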
Measurement Conditions: second compound 0.0316 µM; first compound 0.0316 µM; stronger effect = lower value
Give the value, in units of %, as a plain number.

Retrieve viability, T/C measured for C#Cc1c(F)ccc2cc(O)cc(-c3ncc4c(N5CC6CCC(C5)N6)nc(OCC56CCCN5CC(F)C6)nc4c3F)c12 (stereo not given) + CN(C)c1ccc(Nc2c3ccc(NC(=O)CCN4CCCC4)cc3nc3cc(NC(=O)CCN4CCCC4)ccc23)cc1 and print it. 120

Supply recorded viability, T/C for CC1COCCN1c1cc(C2(O)CC3CCC(C2)O3)c2cnn(-c3ccn[nH]3)c2n1 (stereo not given) + CN(C)c1ccc(Nc2c3ccc(NC(=O)CCN4CCCC4)cc3nc3cc(NC(=O)CCN4CCCC4)ccc23)cc1 here. 30

For the compound Nc1ccn(C2OC(CO)C(O)C2(F)F)c(=O)n1 (stereo not given) + Cc1[nH]c2ccc(F)cc2c1-c1nc2c3cccnc3c3ncccc3c2[nH]1 , report viability, T/C. 20.2

Quickly give me recorded viability, T/C for COc1ncnc(C2CC2)c1-c1ncc2cnn(Cc3ccc(-c4nc(C(F)(F)F)cn4C(C)C)cc3)c2n1 + Cc1[nH]c2ccc(F)cc2c1-c1nc2c3cccnc3c3ncccc3c2[nH]1 99.1

Consider the compound O=C(c1cc(Cc2n[nH]c(=O)c3ccccc23)ccc1F)N1CCN(C(=O)C2CC2)CC1 + Cc1[nH]c2ccc(F)cc2c1-c1nc2c3cccnc3c3ncccc3c2[nH]1 . State its measured viability, T/C. 103

---

For each record, write down the corresponding viability, T/C.
Test system: 817829-284-R-J1-PDC complex spheroids, viability
Experimental Details: Anticancer human tumor 817829-284-R-J1-PDC cell line growth inhibition [GQUAD];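 also: spheroids exposed to agents for 7 days before readout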;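 as to viability, T/C: percent viability relative to DMSO vehicle control taken as 100%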
Measurement Conditions: second compound 10 µM; first compound 0.0316 µM; stronger effect = lower value
Just the number please, in %, no unit attached.

State, in one line, measured viability, T/C of C#Cc1c(F)ccc2cc(O)cc(-c3ncc4c(N5CC6CCC(C5)N6)nc(OCC56CCCN5CC(F)C6)nc4c3F)c12 (stereo unspecified) + CN(C)c1ccc(Nc2c3ccc(NC(=O)CCN4CCCC4)cc3nc3cc(NC(=O)CCN4CCCC4)ccc23)cc1 107

Annotate the compound CCCS(=O)(=O)Nc1ccc(F)c(C(=O)c2c[nH]c3ncc(-c4ccc(Cl)cc4)cc23)c1F + CN(C)c1ccc(Nc2c3ccc(NC(=O)CCN4CCCC4)cc3nc3cc(NC(=O)CCN4CCCC4)ccc23)cc1 with its measured viability, T/C. 94.4

State its viability, T/C for this compound: Nc1ccn(C2OC(CO)C(O)C2(F)F)c(=O)n1 (stereo unspecified) + Cc1[nH]c2ccc(F)cc2c1-c1nc2c3cccnc3c3ncccc3c2[nH]1 7.76

Could you please provide reported viability, T/C for C=CC(=O)N1CCN(c2nc(=O)n(-c3c(C)ccnc3C(C)C)c3nc(-c4c(O)cccc4F)c(F)cc23)C(C)C1 (stereo unspecified) + Cc1[nH]c2ccc(F)cc2c1-c1nc2c3cccnc3c3ncccc3c2[nH]1 ? Thanks! 11.3

Return value of viability, T/C for input Cc1[nH]c2ccccc2c1CCNCc1ccc(/C=C/C(=O)NO)cc1 + Cc1cnc(CNC(=O)c2c(=O)c3ccc(N4CCCN(C)CC4)nc3n3c2sc2ccccc23)cn1 , no commentary. 0.18

Identify measured viability, T/C associated with O=C(c1cc(Cc2n[nH]c(=O)c3ccccc23)ccc1F)N1CCN(C(=O)C2CC2)CC1 + Cc1cnc(CNC(=O)c2c(=O)c3ccc(N4CCCN(C)CC4)nc3n3c2sc2ccccc23)cn1 0.17

Could you please provide reported viability, T/C for CC(C)(O)C1CCC(Nc2ccc3ncc(-c4cccc(C(F)(F)F)c4)n3n2)CC1 (stereo unspecified) + Cc1[nH]c2ccc(F)cc2c1-c1nc2c3cccnc3c3ncccc3c2[nH]1 ? Thanks! 2.48

Note viability, T/C for the compound shown: COc1ccc([C@@H](O)c2cc(-c3ncnc4cc(N5CCOCC5)ccc34)c(F)cc2Cl)nn1 + CN(C)c1ccc(Nc2c3ccc(NC(=O)CCN4CCCC4)cc3nc3cc(NC(=O)CCN4CCCC4)ccc23)cc1 107

Find the measured viability, T/C of Cn1ncnc1[C@H]1c2n[nH]c(=O)c3cc(F)cc(c23)N[C@@H]1c1ccc(F)cc1 + Cc1cnc(CNC(=O)c2c(=O)c3ccc(N4CCCN(C)CC4)nc3n3c2sc2ccccc23)cn1 and report it. 0.17

Name the recorded viability, T/C of the item Cc1[nH]c2ccccc2c1CCNCc1ccc(/C=C/C(=O)NO)cc1 + Cc1[nH]c2ccc(F)cc2c1-c1nc2c3cccnc3c3ncccc3c2[nH]1 in your answer. 28.5

Tell me viability, T/C reported for C#Cc1c(F)ccc2cc(O)cc(-c3ncc4c(N5CC6CCC(C5)N6)nc(OCC56CCCN5CC(F)C6)nc4c3F)c12 (stereo unspecified) + Cc1cnc(CNC(=O)c2c(=O)c3ccc(N4CCCN(C)CC4)nc3n3c2sc2ccccc23)cn1 0.13
